Tested on: Neobacillus 1 (Neobacillus soli)
Test: relative growth (AUC of 72 h growth curve relative to DMSO control, dAUC) (ratio); higher = more growth (less inhibition), active = hit call of the paper
Conditions: 20 µM
Below, each of the compounds is paired with its reported relative growth value.

O=C1C=C(N(Cc2ccc(Cl)nc2)CC(F)F)CO1
1.02 (inactive)
COC(=O)NC(=S)Nc1ccccc1NC(=S)NC(=O)OC
1.01 (inactive)
CC(C1CC1)C(O)(Cn1cncn1)c1ccc(Cl)cc1 (stereo unspecified)
0.985 (inactive)

Field: next compound
Req: I'm curious: which relative growth was measured for Nc1c([N+](=O)[O-])ccc(Oc2ccccc2)c1Cl tested on Neobacillus 1 (Neobacillus soli)?
Resp: 0.913 (inactive)

* * *

Test system: Sphingomonas 2 (Sphingomonas sp.)
Assay: relative growth (AUC of 72 h growth curve relative to DMSO control, dAUC) (ratio); higher = more growth (less inhibition), active = hit call of the paper
Details: 20 µM
Assay Metric: relative growth
// response body must contain only the number

COP(=S)(OC)Oc1nc(Cl)c(Cl)cc1Cl
1.06
CON(C)C(=O)Nc1ccc(Cl)c(Cl)c1
1.02
CCCCN(CCCC)SN(C)C(=O)Oc1cccc2c1OC(C)(C)C2
0.798

Field: next compound
Req: Give its relative growth value. Item: O=C1C=C(N(Cc2ccc(Cl)nc2)CC(F)F)CO1
Resp: 0.914

* * *

System: Aeromonas 3 (Aeromonas popoffii)
Experiment: relative growth (AUC of 72 h growth curve relative to DMSO control, dAUC) (ratio); higher = more growth (less inhibition), active = hit call of the paper
Settings: 20 µM
Below, each of the compounds is paired with its reported relative growth value.

CC1(C)C(C=C(Cl)Cl)C1C(=O)OC(C#N)c1ccc(F)c(Oc2ccccc2)c1 (stereo not drawn)
1.07 (inactive)
N#C/N=C1\SCCN1Cc1ccc(Cl)nc1
1 (inactive)
CC(Oc1ccc(Oc2nc3ccc(Cl)cc3o2)cc1)C(=O)O (stereo not drawn)
1.04 (inactive)
CCOc1ccc(C(C)(C)COCc2cccc(Oc3ccccc3)c2)cc1
1.02 (inactive)
CC(COc1ccc(Oc2ccccc2)cc1)Oc1ccccn1 (stereo not drawn)
1.08 (inactive)

Req: Give its relative growth value. Item: O=C(O)CNCP(=O)(O)O
Resp: 1.03 (inactive)

Req: Give its relative growth value. Item: CC(Oc1ccc(Oc2ncc(C(F)(F)F)cc2Cl)cc1)C(=O)O (stereo not drawn)
Resp: 0.959 (inactive)

* * *

Tested on: Oryzobacter 1 (Oryzobacter terrae)
Test: relative growth (AUC of 72 h growth curve relative to DMSO control, dAUC) (ratio); higher = more growth (less inhibition), active = hit call of the paper
Conditions: 20 µM
Assay Metric: relative growth
// response body must contain only the number

Below are worked cases with known answers.
CCCC1COC(Cn2cncn2)(c2ccc(Cl)cc2Cl)O1 (stereo not given)
1.1
N#CC(CCc1ccc(Cl)cc1)(Cn1cncn1)c1ccccc1 (stereo not given)
1.02

Req: I'm curious: which relative growth was measured for CCOC(=O)CC(SP(=S)(OC)OC)C(=O)OCC (stereo not given) tested on Oryzobacter 1 (Oryzobacter terrae)?
Resp: 1.1

Req: I'm curious: which relative growth was measured for Cc1cc(C(C#N)c2ccc(Cl)cc2)c(Cl)cc1NC(=O)c1cc(I)cc(I)c1O (stereo not given) tested on Oryzobacter 1 (Oryzobacter terrae)?
Resp: 0.00516
